// provenance: PubChem BioAssay AID2060884

# maps each entry to its pIC50
Tested on: NCI-H929 complex spheroids, viability % test/control
Assay: Anticancer human tumor NCI-H929 cell line growth inhibition [RAS];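 also: compound exposure lasted seven days before viability was read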
Details: curve of first compound; second compound 0.00316 µM
Kindly note that pIC50 refers to -log10 of the concentration in mol/L and answer with the value alone.

[
  {
    "compound": "CCC(CC)c1cc(NC2CCC(N)C2)n2nccc2n1 (stereo not drawn) + C=CC(=O)N1CCN(c2nc(OCC3CCCN3C)nc3c(F)c(-c4nc(N)cc(C)c4C(F)(F)F)c(Cl)cc23)C(C)C1",
    "measured-property": "pIC50",
    "value-measured": 5.76
  }
]

Returns the measured pIC50 for the input compound. Input: CC1(O)CCCC1n1c(=O)c(C(F)F)cc2cnc(NC3CCN(S(C)(=O)=O)CC3)nc21 (stereo not drawn) + C=CC(=O)N1CCN(c2nc(OCC3CCCN3C)nc3c(F)c(-c4nc(N)cc(C)c4C(F)(F)F)c(Cl)cc23)C(C)C1
6.74

* * *

Tested on: NCI-H929 complex spheroids, viability % test/control
Assay: Anticancer human tumor NCI-H929 cell line growth inhibition [RAS]; active means viability on the fitted dose curve at most 10% of control; inactive means the rest;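 also: compound exposure lasted seven days before viability was read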
Conditions: second compound 0.03 µM; first compound 0.0316 µM
Just give me one of these, please: 1 (active), -1 (inactive)

Each molecule tested received a call. Report the one for CCN1CCN(Cc2ccc(Nc3ncc(F)c(-c4cc(F)c5nc(C)n(C(C)C)c5c4)n3)nc2)CC1 + CCn1c(-c2cc(N3CCN(C)CC3)cnc2C(C)OC)c2c3cc(ccc31)-c1csc(n1)CC(NC(=O)C1CC1C)C(=O)N1CCCC(N1)C(=O)OCC(C)(C)C2 .
-1

Each molecule tested received a call. Report the one for CC(=O)OC12COC1CC(O)C1(C)C(=O)C(O)C3=C(C)C(OC(=O)C(O)C(NC(=O)OC(C)(C)C)c4ccccc4)CC(O)(C(OC(=O)c4ccccc4)C21)C3(C)C (configuration not stated) + CCn1c(-c2cc(N3CCN(C)CC3)cnc2C(C)OC)c2c3cc(ccc31)-c1csc(n1)CC(NC(=O)C1CC1C)C(=O)N1CCCC(N1)C(=O)OCC(C)(C)C2 .
1

* * *

System: NCI-H929 complex spheroids, viability % test/control
Assay: Anticancer human tumor NCI-H929 cell line growth inhibition [RAS];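 also: compound exposure lasted seven days before viability was read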;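 as to viability, T/C: 100% = DMSO vehicle control viability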
Settings: second compound 0.03 µM; first compound 0.316 µM; stronger effect = lower value
measured-property: viability, T/C (%)
Enter your answer as a number in %; do not include the unit.

Consider the following illustrative entries.
[
  {
    "compound": "Nc1ccn(C2OC(CO)C(O)C2(F)F)c(=O)n1 (centres undefined) + CCn1c(-c2cccnc2C(C)OC)c2c3cc(ccc31)N1CCOC(CC(NC(=O)C(C(C)C)N(C)C(=O)C3(F)CCN(C(=O)C#CC(C)(C)N(C)C)CC3)C(=O)N3CCCC(N3)C(=O)OCC(C)(C)C2)C1",
    "viability, T/C / %": 0.88
  },
  {
    "compound": "CC1(O)CCCC1n1c(=O)c(C(F)F)cc2cnc(NC3CCN(S(C)(=O)=O)CC3)nc21 (centres undefined) + CCn1c(-c2cccnc2C(C)OC)c2c3cc(ccc31)N1CCOC(CC(NC(=O)C(C(C)C)N(C)C(=O)C3(F)CCN(C(=O)C#CC(C)(C)N(C)C)CC3)C(=O)N3CCCC(N3)C(=O)OCC(C)(C)C2)C1",
    "viability, T/C / %": 1.21
  },
  {
    "compound": "C=CC(=O)N1CCN(c2nc(OCC3CCCN3C)nc3c(F)c(-c4nc(N)cc(C)c4C(F)(F)F)c(Cl)cc23)C(C)C1 (centres undefined) + CCn1c(-c2cccnc2C(C)OC)c2c3cc(ccc31)N1CCOC(CC(NC(=O)C(C(C)C)N(C)C(=O)C3(F)CCN(C(=O)C#CC(C)(C)N(C)C)CC3)C(=O)N3CCCC(N3)C(=O)OCC(C)(C)C2)C1",
    "viability, T/C / %": 106
  },
  {
    "compound": "CC1(O)CCCC1n1c(=O)c(C(F)F)cc2cnc(NC3CCN(S(C)(=O)=O)CC3)nc21 (centres undefined) + CCn1c(-c2cc(N3CCN(C)CC3)cnc2C(C)OC)c2c3cc(ccc31)-c1csc(n1)CC(NC(=O)C1CC1C)C(=O)N1CCCC(N1)C(=O)OCC(C)(C)C2",
    "viability, T/C / %": 4.66
  }
]

Record Cc1nc(N2CCC3(CC2)COC(C)C3N)c(CO)nc1Sc1ccnc(N)c1Cl (centres undefined) + CCn1c(-c2cccnc2C(C)OC)c2c3cc(ccc31)N1CCOC(CC(NC(=O)C(C(C)C)N(C)C(=O)C3(F)CCN(C(=O)C#CC(C)(C)N(C)C)CC3)C(=O)N3CCCC(N3)C(=O)OCC(C)(C)C2)C1 : what is its viability, T/C with NCI-H929 complex spheroids, viability % test/control?
103

Record CC(=O)OC12COC1CC(O)C1(C)C(=O)C(O)C3=C(C)C(OC(=O)C(O)C(NC(=O)OC(C)(C)C)c4ccccc4)CC(O)(C(OC(=O)c4ccccc4)C21)C3(C)C (centres undefined) + CCn1c(-c2cc(N3CCN(C)CC3)cnc2C(C)OC)c2c3cc(ccc31)-c1csc(n1)CC(NC(=O)C1CC1C)C(=O)N1CCCC(N1)C(=O)OCC(C)(C)C2 : what is its viability, T/C with NCI-H929 complex spheroids, viability % test/control?
0.75

Record CC(=O)OC12COC1CC(O)C1(C)C(=O)C(O)C3=C(C)C(OC(=O)C(O)C(NC(=O)OC(C)(C)C)c4ccccc4)CC(O)(C(OC(=O)c4ccccc4)C21)C3(C)C (centres undefined) + CCn1c(-c2cccnc2C(C)OC)c2c3cc(ccc31)N1CCOC(CC(NC(=O)C(C(C)C)N(C)C(=O)C3(F)CCN(C(=O)C#CC(C)(C)N(C)C)CC3)C(=O)N3CCCC(N3)C(=O)OCC(C)(C)C2)C1 : what is its viability, T/C with NCI-H929 complex spheroids, viability % test/control?
0.75

Record CCN1CCN(Cc2ccc(Nc3ncc(F)c(-c4cc(F)c5nc(C)n(C(C)C)c5c4)n3)nc2)CC1 + CCn1c(-c2cc(N3CCN(C)CC3)cnc2C(C)OC)c2c3cc(ccc31)-c1csc(n1)CC(NC(=O)C1CC1C)C(=O)N1CCCC(N1)C(=O)OCC(C)(C)C2 : what is its viability, T/C with NCI-H929 complex spheroids, viability % test/control?
29.2

Record Nc1ccn(C2OC(CO)C(O)C2(F)F)c(=O)n1 (centres undefined) + CCn1c(-c2cc(N3CCN(C)CC3)cnc2C(C)OC)c2c3cc(ccc31)-c1csc(n1)CC(NC(=O)C1CC1C)C(=O)N1CCCC(N1)C(=O)OCC(C)(C)C2 : what is its viability, T/C with NCI-H929 complex spheroids, viability % test/control?
1.42

Record CC(C)NCC(C(=O)N1CCN(c2ncnc3c2C(C)CC3O)CC1)c1ccc(Cl)cc1 (centres undefined) + CCn1c(-c2cccnc2C(C)OC)c2c3cc(ccc31)N1CCOC(CC(NC(=O)C(C(C)C)N(C)C(=O)C3(F)CCN(C(=O)C#CC(C)(C)N(C)C)CC3)C(=O)N3CCCC(N3)C(=O)OCC(C)(C)C2)C1 : what is its viability, T/C with NCI-H929 complex spheroids, viability % test/control?
98.5

Record C=CC(=O)N1CCN(c2nc(OCC3CCCN3C)nc3c(F)c(-c4nc(N)cc(C)c4C(F)(F)F)c(Cl)cc23)C(C)C1 (centres undefined) + CCn1c(-c2cc(N3CCN(C)CC3)cnc2C(C)OC)c2c3cc(ccc31)-c1csc(n1)CC(NC(=O)C1CC1C)C(=O)N1CCCC(N1)C(=O)OCC(C)(C)C2 : what is its viability, T/C with NCI-H929 complex spheroids, viability % test/control?
89.7

Record O=C(c1ccc(F)c(F)c1Nc1ccc(I)cc1F)N1CC(O)([C@@H]2CCCCN2)C1 + CCn1c(-c2cccnc2C(C)OC)c2c3cc(ccc31)N1CCOC(CC(NC(=O)C(C(C)C)N(C)C(=O)C3(F)CCN(C(=O)C#CC(C)(C)N(C)C)CC3)C(=O)N3CCCC(N3)C(=O)OCC(C)(C)C2)C1 : what is its viability, T/C with NCI-H929 complex spheroids, viability % test/control?
101

Record C=CC(=O)Nc1cc(Nc2nccc(-c3cn(C)c4ccccc34)n2)c(OC)cc1N(C)CCN(C)C + CCn1c(-c2cccnc2C(C)OC)c2c3cc(ccc31)N1CCOC(CC(NC(=O)C(C(C)C)N(C)C(=O)C3(F)CCN(C(=O)C#CC(C)(C)N(C)C)CC3)C(=O)N3CCCC(N3)C(=O)OCC(C)(C)C2)C1 : what is its viability, T/C with NCI-H929 complex spheroids, viability % test/control?
110

Record C[C@@H](NC(=O)c1ncnc(N)c1Cl)c1ncc(C(=O)Nc2cc(C(F)(F)F)c(Cl)cn2)s1 + CCn1c(-c2cc(N3CCN(C)CC3)cnc2C(C)OC)c2c3cc(ccc31)-c1csc(n1)CC(NC(=O)C1CC1C)C(=O)N1CCCC(N1)C(=O)OCC(C)(C)C2 : what is its viability, T/C with NCI-H929 complex spheroids, viability % test/control?
120
